- Measured On: T1, human EpCAM protein (human, UniProt P16422 24-265)
- T1 construct: biotinylated in the Octet assays; also called hu EpCAM; biotinylated human EpCAM protein
- T1 sequence (looked up): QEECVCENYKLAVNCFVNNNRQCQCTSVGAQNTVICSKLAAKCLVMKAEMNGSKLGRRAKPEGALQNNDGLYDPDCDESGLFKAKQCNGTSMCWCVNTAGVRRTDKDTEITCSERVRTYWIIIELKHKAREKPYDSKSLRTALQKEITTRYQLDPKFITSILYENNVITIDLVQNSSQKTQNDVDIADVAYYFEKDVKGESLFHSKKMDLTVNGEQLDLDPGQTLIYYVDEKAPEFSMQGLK
- Assay Procedure: colorimetric ELISA
Assay Readout: Human EpCAM/Control (ratio)
// note: answer is a bare numeric in ratio

Llama anti-EpCAM single domain antibody EPL15 (VHH, E. coli periplasmic extract) VHH: QVQLQESGGGSVLAGGSLRLSCAASGFTFSSYYMSWVRQAPGKGLEWVSGIHYTGDWTNYADSVKGRFTISRDNAKNELYLEMNNLKPEDTAVYYCARGSDKGQGTQVTVSS    8

For record Llama anti-EpCAM single domain antibody EPL58 (VHH, E. coli periplasmic extract) VHH: QVQLQESGGGLVQAGGSLRLSCAASGPIFSDTIRTMGWYRQAAGKQRELVATIASFPSRTNYVDSVKGRFTISRDIAKNTVYLQMDSLKPEDTAVYYCNVDLASIPTKTYWGQGTQVTVSS the listed Human EpCAM/Control is 8

For record Llama anti-EpCAM single domain antibody EPL156 (VHH, E. coli periplasmic extract) VHH: QVQLQESGGGLVQPGASLRVSCAASEYILSMYRMAWYRQAPGKVRELVADMSSGGTTNYADFVKGRFTISRDNDRNTVYLQMNRLQPEDTAAYYCNVAGRTGPPSYDAFNNWGQGTQVTVSS the listed Human EpCAM/Control is 16

For record Llama anti-EpCAM single domain antibody EPL109 (VHH, E. coli periplasmic extract) VHH: QVQLQESGGGLVQPGGSLRLSCASSGFTLDDYTIGWFRQAPGKEREGVSCISRRDDSTYYADSVKGRFTISRDNAKNTVDLQMISLRPEDTAVYYCAATPRSYTLRCLGKFDFQGQGTQVTVSS the listed Human EpCAM/Control is 5
